- test_system: SMARCA2 (Homo sapiens, UniProt P51531)
- Sequence (P51531 whole entry): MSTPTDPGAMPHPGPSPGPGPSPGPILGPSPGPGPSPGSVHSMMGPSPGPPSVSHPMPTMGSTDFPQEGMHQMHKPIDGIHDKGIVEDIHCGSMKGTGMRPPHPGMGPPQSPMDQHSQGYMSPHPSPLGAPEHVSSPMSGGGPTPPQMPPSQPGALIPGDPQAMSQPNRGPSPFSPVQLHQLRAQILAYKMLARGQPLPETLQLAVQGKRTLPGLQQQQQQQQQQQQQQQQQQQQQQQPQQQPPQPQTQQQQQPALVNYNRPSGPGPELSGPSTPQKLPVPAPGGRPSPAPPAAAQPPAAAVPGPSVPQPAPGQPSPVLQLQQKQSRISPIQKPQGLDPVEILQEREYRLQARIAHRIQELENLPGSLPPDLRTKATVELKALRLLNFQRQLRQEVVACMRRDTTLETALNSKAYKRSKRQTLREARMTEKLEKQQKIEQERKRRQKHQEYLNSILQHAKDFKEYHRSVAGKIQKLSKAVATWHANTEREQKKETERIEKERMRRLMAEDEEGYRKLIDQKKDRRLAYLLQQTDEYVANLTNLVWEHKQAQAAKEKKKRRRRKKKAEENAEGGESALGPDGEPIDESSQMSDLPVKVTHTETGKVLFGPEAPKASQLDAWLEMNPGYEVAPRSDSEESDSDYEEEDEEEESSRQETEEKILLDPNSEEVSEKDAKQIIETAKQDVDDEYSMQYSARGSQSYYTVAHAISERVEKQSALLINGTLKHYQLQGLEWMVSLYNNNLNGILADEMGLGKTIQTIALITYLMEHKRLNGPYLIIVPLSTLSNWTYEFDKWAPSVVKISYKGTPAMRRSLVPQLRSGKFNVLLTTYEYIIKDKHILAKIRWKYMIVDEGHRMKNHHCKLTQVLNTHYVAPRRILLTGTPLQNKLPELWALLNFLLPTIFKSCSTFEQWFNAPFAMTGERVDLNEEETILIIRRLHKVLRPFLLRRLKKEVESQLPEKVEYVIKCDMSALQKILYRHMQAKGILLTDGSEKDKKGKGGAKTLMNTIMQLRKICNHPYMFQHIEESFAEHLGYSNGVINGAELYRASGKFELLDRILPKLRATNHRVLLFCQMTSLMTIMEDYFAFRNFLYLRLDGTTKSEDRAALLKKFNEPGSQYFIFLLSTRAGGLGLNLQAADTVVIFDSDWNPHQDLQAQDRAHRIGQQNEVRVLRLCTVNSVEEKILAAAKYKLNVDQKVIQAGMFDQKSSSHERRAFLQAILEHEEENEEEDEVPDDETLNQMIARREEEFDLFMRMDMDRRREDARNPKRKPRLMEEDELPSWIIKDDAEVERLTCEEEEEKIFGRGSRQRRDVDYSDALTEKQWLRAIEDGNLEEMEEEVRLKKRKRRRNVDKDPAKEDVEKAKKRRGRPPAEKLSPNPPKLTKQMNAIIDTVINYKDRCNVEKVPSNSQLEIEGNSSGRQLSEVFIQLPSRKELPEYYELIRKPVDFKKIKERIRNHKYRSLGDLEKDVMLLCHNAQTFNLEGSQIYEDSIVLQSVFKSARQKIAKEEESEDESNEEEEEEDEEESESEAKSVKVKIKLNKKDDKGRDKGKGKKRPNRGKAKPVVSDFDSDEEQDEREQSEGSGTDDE
- test_description: MSD SMARCA2 degradation in A549 cell line
- Format: cell-based
- details: A549, A549 cells, 24 h
Examples of compounds with documented Dmax follow.

Below, 5 compounds whose answers are already recorded.
compound=C#Cc1cc(O)c(CNC(=O)[C@@H]2C[C@@H](O)CN2C(=O)[C@@H](NC(=O)N2CC3(CC(N4CCC(c5cnc(N6CCc7[nH]c8nnc(-c9ccccc9O)cc8c7[C@H]6C)nc5)CC4)C3)C2)C(C)(C)C)c(Cl)c1 test_system="SMARCA2 (Homo sapiens, UniProt P51531)" result_value="< 50%"
compound=C#Cc1ccc(CNC(=O)[C@@H]2C[C@@H](O)CN2C(=O)[C@@H](NC(=O)N2CC3(CC(N4CCC(N5CCC(N6CCc7[nH]c8nnc(-c9ccccc9O)cc8c7[C@H]6C)CC5)CC4)C3)C2)C(C)(C)C)c(OC)c1 test_system="SMARCA2 (Homo sapiens, UniProt P51531)" result_value="> 90%"
compound=C#Cc1ccc(CNC(=O)[C@@H]2C[C@@H](O)CN2C(=O)[C@@H](NC(=O)N2CC3(CC(N4CCC([C@H]5CC[C@H](N6CCc7[nH]c8nnc(-c9ccccc9O)cc8c7[C@H]6C)CC5)CC4)C3)C2)C(C)(C)C)cc1 test_system="SMARCA2 (Homo sapiens, UniProt P51531)" result_value="> 90%"
compound="C#CCOc1cc(C(C(=O)N2C[C@H](O)C[C@H]2C(=O)NCc2ccc(-c3scnc3C)cc2O[C@H]2CC[C@@H](N3CCC(c4cnc(N5CCc6[nH]c7nnc(-c8ccccc8O)cc7c6[C@H]5C)nc4)CC3)CC2)C(C)C)on1 (single isomer, unassigned)" test_system="SMARCA2 (Homo sapiens, UniProt P51531)" result_value="> 90%"
compound=C#Cc1ccc(CNC(=O)[C@@H]2C[C@@H](O)CN2C(=O)[C@@H](NC(=O)N2CCN(Cc3ccc(-c4cnc(N5CCN6c7cc(-c8ccccc8O)nnc7NC[C@H]6C5)nc4)cc3)CC2)C(C)(C)C)cc1 test_system="SMARCA2 (Homo sapiens, UniProt P51531)" result_value="> 90%"

**Query** Consider the compound C#Cc1cnc(CNC(=O)[C@@H]2C[C@@H](O)CN2C(=O)[C@@H](NC(=O)[C@H]2CCC3(CC2)C[C@H](N2CCC(c4cnc(N5CCN6c7cc(-c8ccccc8O)nnc7NC[C@H]6C5)nc4)CC2)C3)C(C)(C)C)c(OC)c1 (single isomer, unassigned) and give its measured Dmax.
**Result** 50 to 70%

----------
- test_system: SMARCA2 (Homo sapiens)
- test_description: SMARCA2 Western blot degradation in MV4-11 cells
- Assay type: cell-based
- Parameters: SMARCA2/SMARCA4 protein degradation selectivity in MV4-11 cells; endogenous in cells; host or cells: MV4-11
- details: SMARCA2/4 selectivity, MV4-11 cells
observation_type: Selectivity in MV411

Below, 7 compounds whose answers are already recorded.
compound="C#Cc1ccc(CNC(=O)[C@@H]2C[C@@H](O)CN2C(=O)[C@@H](NC(=O)CCCN2CCC(N3CC4(CC(N5CCN6c7cc(-c8ccccc8O)nnc7NC[C@H]6C5)C4)C3)CC2)C(C)(C)C)cc1 (single isomer, unassigned)" observation_type="Selectivity in MV411" result_value="C (C (10-100 fold))"
compound=Cc1ncsc1-c1ccc(CNC(=O)[C@@H]2C[C@@H](O)CN2C(=O)[C@@H](OC(=O)N2CC3(CC(N4CCN(c5cnc(N6CCN7c8cc(-c9ccccc9O)nnc8NC[C@H]7C6)nc5)CC4)C3)C2)C(C)(C)C)cc1 observation_type="Selectivity in MV411" result_value="C (C (10-100 fold))"
compound=C#Cc1ccc(CNC(=O)[C@@H]2C[C@@H](O)CN2C(=O)[C@@H](NC(=O)N2CC3(CC(N4CCC(N5CCC(N6CCc7[nH]c8nnc(-c9ccccc9O)cc8c7[C@@H]6C)CC5)CC4)C3)C2)C(C)(C)C)c(F)c1 observation_type="Selectivity in MV411" result_value="D (D (<10 fold))"
compound="Cc1ncsc1-c1ccc(CNC(=O)[C@@H]2C[C@@H](O)CN2C(=O)C(c2cc(OCCN3CCC(N4CCC(c5cnc(N6CCc7[nH]c8nnc(-c9ccccc9O)cc8c7[C@@H]6C)nc5)CC4)CC3)no2)C(C)C)cc1 (single isomer, unassigned)" observation_type="Selectivity in MV411" result_value="D (D (<10 fold))"
compound=C#Cc1ccc([C@H](C)NC(=O)[C@@H]2C[C@@H](O)CN2C(=O)[C@@H](NC(=O)N2CC3(CC(N4CCC(c5cnc(N6CCc7[nH]c8nnc(-c9ccccc9O)cc8c7[C@H]6C)nc5)CC4)C3)C2)C(C)(C)C)c(OC)c1 observation_type="Selectivity in MV411" result_value="C (C (10-100 fold))"
compound="C#Cc1ccc(CNC(=O)[C@@H]2C[C@@H](O)CN2C(=O)[C@@H](NC(=O)N2CC3(CC(N4CCC(c5cnc(N6CCc7[nH]c8nnc(-c9ccccc9O)cc8c7[C@H]6C)nc5)CC4)C3)C2)C(C)(C)CCN2CCOCC2)cc1 (single isomer, unassigned)" observation_type="Selectivity in MV411" result_value="C (C (10-100 fold))"
compound=C#Cc1ccc(CNC(=O)[C@@H]2C[C@@H](O)CN2C(=O)[C@@H](NC(=O)N2CC3(CC(N4CCC(c5cnc(N6CCc7[nH]c8nnc(-c9ccccc9O)cc8c7[C@H]6C)nc5)CC4)C3)C2)C(C)(C)C)c(OCCCOC)c1 observation_type="Selectivity in MV411" result_value="D (D (<10 fold))"

**Query** Consider the compound C#Cc1ccc(CNC(=O)[C@@H]2C[C@@H](O)CN2C(=O)[C@@H](NC(=O)N2CCN(C[C@H]3CC[C@H](N4CCc5[nH]c6nnc(-c7ccccc7O)cc6c5[C@H]4C)CC3)CC2)C(C)(C)C)cc1 and give its measured Selectivity in MV411.
**Result** C (C (10-100 fold))

----------
- test_system: SMARCA4 (Homo sapiens)
- Construct: SMARCA2/SMARCA4 protein degradation selectivity in MV4-11 cells; endogenous in cells; host or cells: MV4-11
- Sequence (P51532 whole entry): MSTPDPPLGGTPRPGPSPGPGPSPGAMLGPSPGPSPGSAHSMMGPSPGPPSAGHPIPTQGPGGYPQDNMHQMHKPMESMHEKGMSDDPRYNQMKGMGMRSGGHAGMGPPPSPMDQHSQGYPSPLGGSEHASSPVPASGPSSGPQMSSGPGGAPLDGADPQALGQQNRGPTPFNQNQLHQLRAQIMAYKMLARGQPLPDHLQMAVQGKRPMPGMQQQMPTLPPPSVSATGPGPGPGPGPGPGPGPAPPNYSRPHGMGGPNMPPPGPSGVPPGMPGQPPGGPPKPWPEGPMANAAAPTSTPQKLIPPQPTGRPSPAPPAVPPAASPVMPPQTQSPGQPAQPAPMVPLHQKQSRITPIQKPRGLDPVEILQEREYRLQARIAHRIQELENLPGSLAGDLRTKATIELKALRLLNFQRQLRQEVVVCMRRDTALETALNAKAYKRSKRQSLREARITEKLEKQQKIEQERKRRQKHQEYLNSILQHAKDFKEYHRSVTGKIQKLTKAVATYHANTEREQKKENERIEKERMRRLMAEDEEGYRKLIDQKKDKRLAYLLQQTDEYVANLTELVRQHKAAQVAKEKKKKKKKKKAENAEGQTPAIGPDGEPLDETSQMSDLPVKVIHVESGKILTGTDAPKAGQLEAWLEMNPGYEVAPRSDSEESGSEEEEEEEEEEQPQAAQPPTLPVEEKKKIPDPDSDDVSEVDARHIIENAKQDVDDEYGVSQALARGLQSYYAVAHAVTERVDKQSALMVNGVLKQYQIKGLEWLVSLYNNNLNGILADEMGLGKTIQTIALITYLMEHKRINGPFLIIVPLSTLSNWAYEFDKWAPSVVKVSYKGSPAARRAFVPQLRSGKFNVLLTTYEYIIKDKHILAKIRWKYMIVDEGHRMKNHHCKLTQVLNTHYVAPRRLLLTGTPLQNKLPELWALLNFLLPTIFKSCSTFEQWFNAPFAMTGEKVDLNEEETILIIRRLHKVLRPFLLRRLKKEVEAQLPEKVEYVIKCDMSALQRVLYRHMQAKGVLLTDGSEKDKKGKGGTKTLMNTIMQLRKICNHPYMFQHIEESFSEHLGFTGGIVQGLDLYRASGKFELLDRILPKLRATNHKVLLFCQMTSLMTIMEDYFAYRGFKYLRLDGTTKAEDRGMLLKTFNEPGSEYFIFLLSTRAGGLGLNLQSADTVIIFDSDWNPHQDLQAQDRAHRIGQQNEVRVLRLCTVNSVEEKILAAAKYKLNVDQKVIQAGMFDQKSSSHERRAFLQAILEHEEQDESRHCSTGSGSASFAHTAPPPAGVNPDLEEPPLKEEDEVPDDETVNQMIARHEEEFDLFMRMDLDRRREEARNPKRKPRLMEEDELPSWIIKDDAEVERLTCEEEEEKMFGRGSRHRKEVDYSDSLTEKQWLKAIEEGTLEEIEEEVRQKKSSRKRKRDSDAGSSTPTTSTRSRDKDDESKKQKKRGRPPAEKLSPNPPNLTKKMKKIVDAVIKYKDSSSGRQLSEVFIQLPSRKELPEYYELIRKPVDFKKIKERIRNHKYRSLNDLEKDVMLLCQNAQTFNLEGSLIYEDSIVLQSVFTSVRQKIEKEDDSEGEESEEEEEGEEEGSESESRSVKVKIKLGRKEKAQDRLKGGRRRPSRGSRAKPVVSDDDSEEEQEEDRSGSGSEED
- test_description: SMARCA4 Western blot degradation in MV4-11 cells
- Assay type: cell-based
- details: MV4-11 cells, 24 h; read-out: SMARCA4 MSD MV411 degradation 24 h: Mean external-Abs DC50
Examples of molecules with documented DC50 follow.

Below, 5 molecules whose answers are already recorded.
molecule="C#Cc1ccc(CNC(=O)[C@@H]2C[C@@H](O)CN2C(=O)[C@@H](NC(=O)[C@H]2CCC3(CC2)C[C@H](N2CCC(N4CC5(CC(N6CCN7c8cc(-c9ccccc9O)nnc8NC[C@H]7C6)C5)C4)CC2)C3)C(C)(C)C)cc1 (single isomer, unassigned) [I-237]" observation_type=DC50 result_value="> 100 nM"
molecule="Cc1ncsc1-c1ccc(CNC(=O)[C@@H]2C[C@@H](O)CN2C(=O)[C@@H](NC(=O)[C@H]2CCC3(CC2)C[C@H](N2CCC4(CC2)CN(C(=O)N2CCN5c6cc(-c7ccccc7O)nnc6NC[C@H]5C2)CCO4)C3)C(C)(C)C)cc1 (single isomer, unassigned) [I-133]" observation_type=DC50 result_value="> 100 nM"
molecule=C#Cc1ccc(CNC(=O)[C@@H]2C[C@@H](O)CN2C(=O)[C@@H](NC(=O)CN2CCC(N3CC4(CC(N5CCN6c7cc(-c8ccccc8O)nnc7NC[C@H]6C5)C4)C3)CC2)C(C)(C)C)cc1 observation_type=DC50 result_value="1 to 10 nM"
molecule="C#Cc1ccc(CNC(=O)[C@@H]2C[C@@H](O)CN2C(=O)[C@@H](NC(=O)[C@H]2CCC3(CC2)C[C@H](N2CCN(c4cnc(N5CCN6c7cc(-c8ccccc8O)nnc7NC[C@H]6C5)nc4)CC24CC4)C3)C(C)(C)C)cc1 (stereo partly drawn) [I-266]" observation_type=DC50 result_value="> 100 nM"
molecule="CC(C)C(C(=O)N1C[C@H](O)C[C@H]1C(=O)NCc1ccc(Cl)cc1)c1cc(N2CC3(CC(N4CCC(c5cnc(N6CCN7c8cc(-c9ccccc9O)nnc8NC[C@H]7C6)nc5)CC4)C3)C2)no1 (stereo partly drawn)" observation_type=DC50 result_value="> 100 nM"

Let us examine a further case.
**Query** Consider the molecule C#Cc1ccc(CNC(=O)[C@@H]2C[C@@H](O)CN2C(=O)[C@@H](NC(=O)N2CC3(CC(N4C[C@H]5CN(c6cnc(N7CCc8[nH]c9nnc(-c%10ccccc%10O)cc9c8[C@H]7C)nc6)C[C@H]5C4)C3)C2)C(C)(C)C)cc1 and give its measured DC50.
**Result** > 100 nM

----------
- test_system: SMARCA4 (Homo sapiens)
- Construct: SMARCA2/SMARCA4 protein degradation selectivity in MV4-11 cells; endogenous in cells; host or cells: MV4-11
- test_description: SMARCA4 Western blot degradation in MV4-11 cells
- Assay type: cell-based
- details: MV4-11, MV4-11 cells, 24 h; read-out: SMARCA4 MSD MV411 degradation 24 h: average Dmax %
observation_type: Dmax

molecule="C#Cc1ccc(CNC(=O)[C@@H]2C[C@@H](O)CN2C(=O)[C@@H](NC(=O)N2CC3(CC(N4CCC(c5cnc(N6CCc7[nH]c8nnc(-c9ccccc9O)cc8c7[C@H]6C)nc5)CC4)C3)C2)C(C)(C)C)c(OCC(=O)O)c1 [I-144]" observation_type=Dmax result_value="70 to 90%"
molecule="C#Cc1ccc(CNC(=O)[C@@H]2C[C@@H](O)CN2C(=O)[C@@H](NC(=O)N2CCN(C[C@@H]3CCN(c4cnc(N5CCc6[nH]c7nnc(-c8ccccc8O)cc7c6[C@H]5C)nc4)C3)CC2)C(C)(C)C)cc1 (single isomer, unassigned) [I-161]" observation_type=Dmax result_value="50 to 70%"

**Query** Consider the molecule C#Cc1ccc([C@H](C)NC(=O)[C@@H]2C[C@@H](O)CN2C(=O)[C@@H](NC(=O)[C@H]2CCC3(CC2)C[C@H](N2CCN(c4cnc(N5CCN6c7cc(-c8ccccc8O)nnc7NC[C@H]6C5)nc4)CC2)C3)C(C)(C)C)cc1 (single isomer, unassigned) [I-233] and give its measured Dmax.
**Result** 50 to 70%

Hello, the source for this data is patent US20250170248A1, in case you need it.
